# Test system: Vero
# Experiment description: Cytotoxicity against african green monkey Vero cells after 4 hrs by MTT assay
# Assay type: cell-based
# Condition summary: Chlorocebus sabaeus
Some compounds, each annotated with its measured IC50.

[
  {
    "Record smiles": "C=CC1=C(C)[C@@H]2CC(=O)[C@H]3[C@](C)(COC(C)=O)CCC[C@]3(C)[C@H]2CC1",
    "Units label": "µM",
    "IC50": 238
  },
  {
    "Record smiles": "C=CC1=C(C)[C@@H]2C[C@@H](OC(C)=O)[C@H]3[C@](C)(CO)CCC[C@]3(C)[C@H]2CC1",
    "Units label": "µM",
    "IC50": 178
  },
  {
    "Record smiles": "CO[C@@]12C[C@H]3[C@@H]([C@@H](O)[C@@H](OC(C)=O)[C@H]4[C@](C)(COC(C)=O)CCC[C@]34C)[C@@H](C)C1=CC(=O)O2",
    "Units label": "µM",
    "IC50": 225
  }
]

----------
# Tested on: Trypanosoma cruzi
# Experiment description: Antitrypanosomal activity against intracellular Trypanosoma cruzi Tulahuen clone C4 assessed as cleavage of […]
# Type: functional, organism-based

[
  {
    "Compound": "C=CC1=C(C)[C@@H]2CC(=O)[C@H]3[C@](C)(COC(C)=O)CCC[C@]3(C)[C@H]2CC1",
    "Units label": "µM",
    "IC50": 79.1
  },
  {
    "Compound": "C=CC1=C(CO)[C@@H]2C[C@@H](O)[C@H]3[C@](C)(COC(C)=O)CCC[C@]3(C)[C@H]2CC1 [CHAGRESNOL]",
    "Units label": "µM",
    "IC50": 76
  },
  {
    "Compound": "CC(=O)OC[C@H]1[C@@H]2[C@@H]3CC[C@H]4[C@@](C)(CO)CCC[C@]4(C)[C@H]3CC(=O)[C@@]21C [CHAGRESNONE]",
    "Units label": "µM",
    "IC50": 95.5
  }
]

FYI, the data here is from ChEMBL document CHEMBL1148923.
